Data origin: paper PMC11931385

- study-target: T1, Rb^P E693A (human, UniProt P06400 380-788, E693A)
- T1 construct: also called variant 60
- T1 sequence (looked up): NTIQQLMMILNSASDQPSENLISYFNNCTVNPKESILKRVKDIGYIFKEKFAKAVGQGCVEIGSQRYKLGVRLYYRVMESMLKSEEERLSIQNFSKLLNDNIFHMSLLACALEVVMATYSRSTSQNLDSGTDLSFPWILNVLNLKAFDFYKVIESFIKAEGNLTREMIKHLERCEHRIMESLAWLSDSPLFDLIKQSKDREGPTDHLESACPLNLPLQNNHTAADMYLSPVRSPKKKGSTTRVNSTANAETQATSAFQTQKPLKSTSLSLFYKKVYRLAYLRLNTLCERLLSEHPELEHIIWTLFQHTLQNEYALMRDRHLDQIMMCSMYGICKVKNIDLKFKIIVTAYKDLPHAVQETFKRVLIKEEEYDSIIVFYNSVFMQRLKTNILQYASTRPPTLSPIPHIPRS
- assay-details: fluorescence polarisation; 37 °C, after the 25 °C reading ramped over 7 min to 37 °C and 2 min incubation; unlabeled Rb^P against 1.5 nM TMR-E2F1^TD or 7.5 nM TMR-E7^LxCxE; 25 mM Tris pH 8.0, 200 mM NaCl, 1 mM DTT, 0.1% Tween-20; apparent Kd
- condition-label: both partners purified
No end group written: not given here. TMR = tetramethyl rhodamine dye
Reported pKd is given for each of the following binders.
# log scale: pKd equals minus log10 of the concentration in mol/L

pKd reading for {TMR}-GEGIRDLFDCDFGDLTPLD (also called E2F^TD; source: synthetic peptide, bought: GenScript) [TMR-E2F1^TD, peptide of the E2F1 transactivation domain] : 7.23

Others:
pKd reading for DLYCYEQLN (also: TMR label, position not given here, source: synthetic peptide, bought: GenScript) [TMR-E7^LxCxE, LxCxE peptide of the E7 oncoprotein from HPV] : 7.62
